Test system: 349418-098-R-PDC complex spheroid growth
Assay method text: Anticancer human tumor 349418-098-R-PDC patient-derived lung adenocarcinoma cell line growth inhibition [AhR]
Setup conditions: second compound 0.1 µM; first compound 0.00949 µM; hits give low values
// classify: if (viability, T/C < 90%) class 1 else class 0

Examples from the recorded data:
CCN(c1cc(-c2ccc(CN3CCOCC3)cc2)cc(C(=O)NCc2c(C)cc(C)[nH]c2=O)c1C)C1CCOCC1 + Cc1cncc(-c2nc(NCCc3c[nH]c4ccccc34)c3ncn(C(C)C)c3n2)c1 = class 0
CCc1c2c(nc3ccc(O)cc13)-c1cc3c(c(=O)n1C2)COC(=O)[C@]3(O)CC + CC(CO)NC(=O)c1cc(-c2ccc(Cl)cc2)nn(-c2cnn(C)c2)c1=O = class 1
O=C(C=Cn1cnc(-c2cc(C(F)(F)F)cc(C(F)(F)F)c2)n1)NNc1cnccn1 + Cc1ccccc1N=Nc1ccc(NC(=O)c2ccnn2C)c(C)c1 = class 1

Problem: # TODO verify viability, T/C < 90% strictly for this compound: CCN(c1cc(-c2ccc(CN3CCOCC3)cc2)cc(C(=O)NCc2c(C)cc(C)[nH]c2=O)c1C)C1CCOCC1 + Cc1ccccc1N=Nc1ccc(NC(=O)c2ccnn2C)c(C)c1
Result: class 1

Problem: # TODO verify viability, T/C < 90% strictly for this compound: O=C(C=Cn1cnc(-c2cc(C(F)(F)F)cc(C(F)(F)F)c2)n1)NNc1cnccn1 + CC(CO)NC(=O)c1cc(-c2ccc(Cl)cc2)nn(-c2cnn(C)c2)c1=O
Result: class 1

Problem: # TODO verify viability, T/C < 90% strictly for this compound: Nc1ncn(C2CC(O)C(CO)S2)c(=O)n1 (configuration not stated) + CC(CO)NC(=O)c1cc(-c2ccc(Cl)cc2)nn(-c2cnn(C)c2)c1=O
Result: class 1

Problem: # TODO verify viability, T/C < 90% strictly for this compound: O=C(C=Cn1cnc(-c2cc(C(F)(F)F)cc(C(F)(F)F)c2)n1)NNc1cnccn1 + Cc1cncc(-c2nc(NCCc3c[nH]c4ccccc34)c3ncn(C(C)C)c3n2)c1
Result: class 0

* * *

Examples of compounds with documented viability, T/C follow.
System: 349418-098-R-PDC complex spheroid growth
Assay method text: Anticancer human tumor 349418-098-R-PDC cell line growth inhibition [AhR];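 note: spheroids also contain HUVEC endothelial cells and human MSC stroma; spheroids exposed to agents for seven days before luminescence viability read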
Setup conditions: second compound 0.316 µM; first compound 0.316 µM; hits give low values

Example compounds with recorded viability, T/C:
NS(=O)(=O)OCC1CC(n2ccc3c(NC4CCc5ccccc54)ncnc32)CC1O (stereo unspecified) + Cc1ccccc1N=Nc1ccc(NC(=O)c2ccnn2C)c(C)c1 = 39.2%
COc1ccc([C@@H](O)c2cc(-c3ncnc4cc(N5CCOCC5)ccc34)c(F)cc2Cl)nn1 + CC(CO)NC(=O)c1cc(-c2ccc(Cl)cc2)nn(-c2cnn(C)c2)c1=O = 87%
O=C(c1cc(Cc2n[nH]c(=O)c3ccccc23)ccc1F)N1CCN(C(=O)C2CC2)CC1 + Cc1ccccc1N=Nc1ccc(NC(=O)c2ccnn2C)c(C)c1 = 108%

Problem: Give viability, T/C for COc1cc(C2c3cc4c(cc3C(OC3OC5COC(C)OC5C(O)C3O)C3COC(=O)C23)OCO4)cc(OC)c1O (stereo unspecified) + Cc1ccccc1N=Nc1ccc(NC(=O)c2ccnn2C)c(C)c1
Result: 47.2%

Problem: Give viability, T/C for Nc1ccccc1NC(=O)c1ccc(CNC(=O)OCc2cccnc2)cc1 + Cc1ccccc1N=Nc1ccc(NC(=O)c2ccnn2C)c(C)c1
Result: 72%

Problem: Give viability, T/C for COc1cc(Nc2ncc3c(n2)-c2ccc(Cl)cc2C(c2c(F)cccc2OC)=NC3)ccc1C(=O)O + Cc1cncc(-c2nc(NCCc3c[nH]c4ccccc34)c3ncn(C(C)C)c3n2)c1
Result: 44.4%

These entries and their values trace back to PubChem BioAssay AID1918996.
